Test: Stability testing of bis-mesylate forms for 1 week (XRPD, HPLC purity)
Format: physicochemical
Settings: 40° C./75% RH
Experimental: Form A, Form B, Form C, Form D, Form E and Form I were exposed to environments of 40° C./75% RH, ambient light (about 22° C.) and elevated temperature (80° C.) for 1 week to determine the stability. The resulting solids were analyzed by XRPD to establish if any form changes had occurred and by HPLC to determine purity.
measurement-name: polymorphic form after stability test (XRPD)

# compound, result
data = [
    ("Nc1ncccc1-c1nc2ccc(-c3ccccc3)nc2n1-c1ccc(C2(N)CCC2)cc1 [Form B]", "converted to Form J"),
    ("Nc1ncccc1-c1nc2ccc(-c3ccccc3)nc2n1-c1ccc(C2(N)CCC2)cc1 [Form A]", "No change"),
    ("Nc1ncccc1-c1nc2ccc(-c3ccccc3)nc2n1-c1ccc(C2(N)CCC2)cc1 [Form C]", "No change"),
    ("Nc1ncccc1-c1nc2ccc(-c3ccccc3)nc2n1-c1ccc(C2(N)CCC2)cc1 [Form D]", "converted to Form J"),
]

---

Assay: Solvent solubility screen by solvent addition technique
Type: physicochemical
Settings: 40 °C, organic solvent or mixture, thermodynamic from solid; Tetrahydrofuran; amorphous input; read-out: Solubility (mg/mL) at 40° C.
Where a name gives a salt, the structure may show the parent alone.
measurement-name: solubility

Memo: Nc1ncccc1-c1nc2ccc(-c3ccccc3)nc2n1-c1ccc(C2(N)CCC2)cc1 [Compound A bis-mesylate salt] , reported solubility: < 8 mg/mL

---

Assay: Thermodynamic aqueous solubility
Assay type: physicochemical
Conditions: water, 25 °C, thermodynamic from solid, pH 1.2, max conc. 50 mg/ml
Where a name gives a salt, the structure may show the parent alone.
measurement-name: solubility at 24 h (µg/mL)
# number only, unit µg/mL dropped from output

// sample Nc1ncccc1-c1nc2ccc(-c3ccccc3)nc2n1-c1ccc(C2(N)CCC2)cc1 [Compound A HCl salt] , its solubility at 24 h was 8300

---

Test: Stability testing of bis-mesylate forms for 1 week (XRPD, HPLC purity)
Type: physicochemical
Settings: 40° C./75% RH
measurement-name: HPLC purity after stability test

Some entries whose results are on file:
# molecule, measurement-name, result
measured = [
    ("Nc1ncccc1-c1nc2ccc(-c3ccccc3)nc2n1-c1ccc(C2(N)CCC2)cc1 [Form C]", "HPLC purity after stability test", "about 99.9%"),
    ("Nc1ncccc1-c1nc2ccc(-c3ccccc3)nc2n1-c1ccc(C2(N)CCC2)cc1 [Form I]", "HPLC purity after stability test", "about 99.8%"),
    ("Nc1ncccc1-c1nc2ccc(-c3ccccc3)nc2n1-c1ccc(C2(N)CCC2)cc1 [Form B]", "HPLC purity after stability test", "about 99.8%"),
    ("Nc1ncccc1-c1nc2ccc(-c3ccccc3)nc2n1-c1ccc(C2(N)CCC2)cc1 [Form E]", "HPLC purity after stability test", "about 99.8%"),
]

The molecule listed as Nc1ncccc1-c1nc2ccc(-c3ccccc3)nc2n1-c1ccc(C2(N)CCC2)cc1 [Form A] has a reported HPLC purity after stability test of about 99.8%

The recorded HPLC purity after stability test for entry Nc1ncccc1-c1nc2ccc(-c3ccccc3)nc2n1-c1ccc(C2(N)CCC2)cc1 [Form D] equals about 99.9%

---

Experiment: Solvent solubility screen by solvent addition technique
Assay type: physicochemical
Conditions: 40 °C, aqueous with cosolvent or surfactant or cyclodextrin, thermodynamic from solid; 2-Propanol:water (50:50); amorphous input; read-out: Solubility (mg/mL) at 40° C.
Structures can show the parent of a compound that is named as a salt.
measurement-name: solubility

In plain terms, Nc1ncccc1-c1nc2ccc(-c3ccccc3)nc2n1-c1ccc(C2(N)CCC2)cc1 [Compound A bis-mesylate salt] has a documented solubility of ~400 mg/mL
